Every entry's value here was drawn from ChEMBL document CHEMBL4308854.

- Test system: Staphylococcus aureus
- MEASUREMENT_PROTOCOL: Antibacterial activity against Staphylococcus aureus RCMB 010028 after 24 hrs by serial dilution method
- Type: functional
- COND: RCMB 010028, 24 h
PARAMETER_MEASURED: MIC (µg/mL)
Numbers only, in µg/mL.

Some compounds with recorded MIC:
Query: // returns reported MIC for input `CC(=O)c1sc(/N=C2\NC(=O)/C(=C3/C(=O)N(C)c4ccc(Cl)cc43)S2)nc1C`
Result: 0.98

Query: // returns reported MIC for input `CC(=O)c1sc(/N=C2\NC(=O)/C(=C3/C(=O)Nc4ccc(Cl)cc43)S2)nc1C`
Result: 0.98

Query: // returns reported MIC for input `CCOC(=O)c1sc(/N=C2\NC(=O)/C(=C3/C(=O)Nc4ccccc43)S2)nc1C`
Result: 0.98

Query: // returns reported MIC for input `CC(=O)c1sc(/N=C2\NC(=O)/C(=C/c3c[nH]c4ccccc34)S2)nc1C`
Result: 7.81

Query: // returns reported MIC for input `CCOC(=O)c1sc(/N=C2\NC(=O)/C(=C3/C(=O)Nc4ccc(Br)cc43)S2)nc1C`
Result: 3.9

Quick request: MIC for each listed item, please.
1. CC(=O)c1sc(/N=C2\NC(=O)/C(=C3/C(=O)N(Cc4ccccc4)c4ccccc43)S2)nc1C
2. CCOC(=O)c1sc(/N=C2\NC(=O)/C(=C3/C(=O)N(C)c4ccc(Cl)cc43)S2)nc1C
3. CCOC(=O)c1sc(/N=C2\NC(=O)/C(=C3/C(=O)N(Cc4ccccc4)c4ccc(Cl)cc43)S2)nc1C
4. CC(=O)c1sc(/N=C2\NC(=O)/C(=C3/C(=O)N(Cc4ccccc4)c4ccc(Cl)cc43)S2)nc1C

Result:
1.95
1.95
0.98
0.98
